- Assay text: inhibition of 3D7 malaria parasite growth – strain 3D7 (AID 2306);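 further: 0% = DMSO wells and 100% = chloroquine plus artemisinin control wells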
- Condition: P. falciparum 3D7 erythrocytic growth, LDH absorbance, 72 h; at 2 µM; active compounds read high
Active and inactive are the calls of the source. How the calls were made is not given here.
Measured metric: growth inhibition

[[record]]
sample_smiles = "COc1cc(CNC[C@@H](O)[C@H](Cc2ccccc2)NC(=O)c2cc(C3CCCC3)cc(N3CCCS3(=O)=O)c2)cc(OC)c1"
result = "95% (active)"

[[record]]
sample_smiles = "O=C(Nc1cccc([N+](=O)[O-])c1)N(Cc1ccc(Cl)c(Cl)c1)C1CCNCC1"
result = "99% (active)"

[[record]]
sample_smiles = "CCNc1cc(C)nc(Nc2ccc(NC(=O)c3ccc(OC)c(OC)c3)cc2)n1"
result = "101% (active)"

[[record]]
sample_smiles = "CN(C)CCN1CCN(CCCN2c3ccccc3Sc3ccc(C(F)(F)F)cc32)CC1"
result = "99% (active)"

[[record]]
sample_smiles = "Cc1cc(Nc2ccc(O)cc2)nc2cc(O)ccc12"
result = "100% (active)"


---

- Assay text: inhibition of 3D7 malaria parasite growth – strain 3D7 (AID 2306);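 further: 0% = DMSO wells and 100% = chloroquine plus artemisinin control wells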
- Condition: P. falciparum 3D7 erythrocytic growth, LDH absorbance, 72 h; at 2 µM; active compounds read high
Consider the following molecules and their measured growth inhibition readings.
Measured metric: growth inhibition (%)

[[record]]
molecule = "Cc1cc2c(cc1C(F)(F)F)N(C(=O)Nc1cc(OCCN(C)C)cc(C(F)(F)F)c1)CC2"
number = 101

[[record]]
molecule = "C[C@@H](CC1CCCCC1)OC(=O)N(C)[C@H]1CCN(C#N)C1"
number = 84

[[record]]
molecule = "COc1ccc(CCn2c(=N)c(C(=O)NCc3ccccc3)cc3c(=O)n4cccc(C)c4nc32)cc1"
number = 102

[[record]]
molecule = "CC1(C)[C@H]2CC[C@@H](CNc3nc(NCC(=O)Nc4ccc5ccccc5c4)nc(N4CCC(N5CCCC5)CC4)n3)[C@@H]1C2"
number = 93

[[record]]
molecule = "Cc1cc(-c2ccc(Cl)cc2)c2c(N)c(C(=O)Nc3ccc(F)cc3)sc2n1"
number = 97

[[record]]
molecule = "COc1ccc2c(NN=Cc3cccnc3)ccnc2c1"
number = 97

[[record]]
molecule = "O=C(NC1CC1)c1ccc(N2CCN(Cc3ccc(Cl)cc3)CC2)nc1"
number = 84

[[record]]
molecule = "COc1cc2nc(NCc3ccccc3)nc(NCc3ccccc3)c2cc1OC"
number = 102

[[record]]
molecule = "O=C(/C=C/c1ccc(Cl)c(Cl)c1)N1CCN(C(=O)Nc2ccc(C(F)(F)F)cc2)CC1"
number = 98

[[record]]
molecule = "O=c1cc(NCCCNC2CCc3ccc(Cl)cc32)[nH]c2ccccc12 (stereo unspecified)"
number = 92

[[record]]
molecule = "CCCN(CCC)CCCNc1ccc(C(=O)Nc2ccc(OCC)cc2)cc1[N+](=O)[O-]"
number = 89

[[record]]
molecule = "Cc1ccc(NC(=O)c2ccc3ncccc3c2)cc1OC1CCN(Cc2ccco2)C1 (stereo unspecified)"
number = 86

[[record]]
molecule = "CCCCCN1CCCCC(NS(=O)(=O)c2ccc(C(=O)Nc3ccc(C(F)(F)F)cc3)cc2)C1 (stereo unspecified)"
number = 89

[[record]]
molecule = "Cc1ccc2nc(C)cc(NN=CC=Cc3ccccc3)c2c1"
number = 92

[[record]]
molecule = "COc1cc(F)c2ncc(Cl)c(CCN3CCC(NCc4ccc5c(c4)NC(=O)CO5)CC3)c2c1"
number = 95

[[record]]
molecule = "O=C(Nc1cccc(CN2CCCN(Cc3cccc(Cl)c3)CC2)c1)c1ccc(Br)cc1"
number = 92

[[record]]
molecule = "CCCCCCc1cc(Oc2c(I)cc(C[C@H](N)C(=O)O)cc2I)ccc1O"
number = 97

[[record]]
molecule = "O=C(NC(c1ccccc1)c1ccc2cccnc2c1O)c1ccccc1 (stereo unspecified)"
number = 94

[[record]]
molecule = "OCCn1c(CNCCCNc2nc3ccccc3[nH]2)cc2c(Cl)cc(Cl)cc21"
number = 95

[[record]]
molecule = "CC(C)CNC(=O)c1cncc(-c2cccc(CNC3Cc4ccccc4C3)c2)c1"
number = 100

[[record]]
molecule = "Cc1[nH]c(C)c(-c2ccc(C(F)(F)F)cc2)c(=O)c1Br"
number = 98

[[record]]
molecule = "NC(N)=Nc1nc(-c2ccc(N=C(N)N3CCC[C@H]3CN3CCCC3)cc2)cs1"
number = 82

[[record]]
molecule = "O=C(NC1CCN(c2ccnc3cc(Cl)ccc23)C1)c1ccc(F)cc1 (stereo unspecified)"
number = 94

[[record]]
molecule = "Cc1nnsc1C(=O)Nc1cccc(-c2ccc(-c3nc4c(C)cccc4[nH]3)s2)c1"
number = 100

[[record]]
molecule = "COc1ccc2ncc(C#N)c(CCN3CCC(NCc4ccc5c(n4)NC(=O)CS5)CC3)c2n1"
number = 89

[[record]]
molecule = "CC(C)CCn1c(Sc2ccc(C#N)c([N+](=O)[O-])c2)nnc1-c1ccccc1Cl"
number = 93

[[record]]
molecule = "Cc1noc(C)c1-c1cccc(CNCc2cccc(-c3ccc(-c4nc5ccccc5[nH]4)cc3)c2)c1"
number = 100

[[record]]
molecule = "CC(C)NCc1ccc(-c2ccc(CN3CCCC(c4ccccc4)C3)cc2)c(C(=O)NCC2CCCCC2)c1 (stereo unspecified)"
number = 97

[[record]]
molecule = "CCCC(C)Nc1nc(C)cc(N[C@@H](Cc2ccccc2)C(=O)NCCc2ccccc2)n1 (stereo partly specified)"
number = 97

[[record]]
molecule = "CNCCNCc1ccc(-c2ccc(-c3nc4c(C)cccc4[nH]3)cc2)cc1"
number = 96

[[record]]
molecule = "Cn1cncc1C(=O)Nc1ccc(-c2cccc(-c3nc4ccc(C(F)(F)F)cc4[nH]3)c2)cc1"
number = 100

[[record]]
molecule = "CCN(CCCN1CCCCC1)c1cc(C)nc(Nc2cc(Br)ccc2C)n1"
number = 98

[[record]]
molecule = "Cc1ccc2nc3sc(C(=O)NCCCN4CCC(N5CCCCC5)CC4)cc3cc2c1"
number = 103

[[record]]
molecule = "CC(O)C1CCCCN1C(=O)c1ccc(-c2ccc(-c3nc4ccccc4[nH]3)s2)cc1 (stereo unspecified)"
number = 101

[[record]]
molecule = "CCc1cccc(OCCCON2C(N)=NC(N)=NC2(C)C)c1"
number = 95

[[record]]
molecule = "Cc1cc(N(C)C)nc(Nc2ccc(NC(=O)c3ccccc3C)cc2)n1"
number = 93

